Tested on: a variety of test species
Procedure text: Pre-emergence herbicidal activity (glasshouse, sprayed one day after sowing, evaluated after 13 days)
Format: in vivo
Parameters: key: 5=total damage to plant; 0=no damage to plant
Test context: AMARE, application pre-emergence, rate 1000 g/Ha, scale 0-5
Property name: Pre-emergence herbicidal damage score, AMARE

compound="CCC(=O)OC1C(C)=C(Cl)C(=O)N1c1cc(C(C)(CC)CC#N)on1 (stereo not shown)" target_of_assay="a variety of test species" reported_result=5
compound="CCc1onc(N2C(=O)C(Cl)=C(C)C2O)c1C#N (stereo not shown)" target_of_assay="a variety of test species" reported_result=5
compound="CCCC1=C(Br)C(=O)N(c2noc(C(C)(C)C)c2C#N)C1OC(=O)CC (stereo not shown)" target_of_assay="a variety of test species" reported_result=5
compound="COC1=C(C)C(=O)N(c2cc(C(C)(C)C)on2)C1O (stereo not shown)" target_of_assay="a variety of test species" reported_result=5
compound="COC1=C(C)C(=O)N(c2cc(C)on2)C1O (stereo not shown)" target_of_assay="a variety of test species" reported_result=5
compound="CNC1=C(Cl)C(=O)N(c2cc(C(C)(C)C)on2)C1O (stereo not shown)" target_of_assay="a variety of test species" reported_result=5
compound="CCOC(=O)OC1C(C)=C(Cl)C(=O)N1c1noc(C(C)(C)C)c1C#N (stereo not shown)" target_of_assay="a variety of test species" reported_result=5
compound="CC1=C(Cl)C(=O)N(c2cc(C(C)(C)C)on2)C1OC(=O)OCC(C)C (stereo not shown)" target_of_assay="a variety of test species" reported_result=5
compound=CC1=C(I)C(=O)N(c2cc(C(C)(C)C)on2)[C@H]1O target_of_assay="a variety of test species" reported_result=5
compound="CC1=C(Cl)C(=O)N(c2cc(C(C)(C)C)on2)C1OC(=O)c1ccc(C(F)(F)F)nc1 (stereo not shown)" target_of_assay="a variety of test species" reported_result=5
